Would you kindly list activity at 100 µM for each of these molecules?
Biological target: UGT2B4 (Homo sapiens)
Construct: purchased BD Gentest Corp. (Woburn, MA, USA); host or cells: baculovirus-infected insect cells
Sequence (P06133 24-528): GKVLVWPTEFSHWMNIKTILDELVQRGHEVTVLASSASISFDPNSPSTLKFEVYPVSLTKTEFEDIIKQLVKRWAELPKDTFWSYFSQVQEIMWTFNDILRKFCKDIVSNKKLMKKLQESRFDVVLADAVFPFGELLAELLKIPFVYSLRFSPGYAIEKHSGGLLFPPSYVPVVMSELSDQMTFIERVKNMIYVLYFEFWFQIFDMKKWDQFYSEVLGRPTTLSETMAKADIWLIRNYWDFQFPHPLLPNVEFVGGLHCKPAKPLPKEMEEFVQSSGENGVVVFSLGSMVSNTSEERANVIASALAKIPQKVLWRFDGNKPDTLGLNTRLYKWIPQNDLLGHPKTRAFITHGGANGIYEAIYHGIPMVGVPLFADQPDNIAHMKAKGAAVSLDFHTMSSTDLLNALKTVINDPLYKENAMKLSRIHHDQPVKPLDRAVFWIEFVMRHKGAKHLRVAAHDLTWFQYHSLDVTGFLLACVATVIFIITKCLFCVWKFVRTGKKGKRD
Experiment: Recombinant UGT2B4-catalyzed 4-MU glucuronidation inhibition
Type: in vitro ADME
Settings: pH 7.4, probe 4-methylumbelliferone (4-MU), UGT2B4, 100 μM of compound, 4-MU substrate, read-out: residual activity
State just the number; it will be interpreted in %.

Q. What value of measured activity at 100 µM is listed for C[C@@H]1CC[C@@]2(OC1)O[C@H]1C[C@H]3[C@@H]4CC=C5C[C@@H](O[C@@H]6O[C@H](CO)[C@@H](O)[C@H](O[C@@H]7OC[C@@H](O)[C@H](O)[C@H]7O)[C@H]6O[C@@H]6O[C@@H](C)[C@H](O)[C@@H](O)[C@H]6O)CC[C@]5(C)[C@H]4CC[C@]3(C)[C@H]1[C@@H]2C [OD′, ophiopogonin D′] ?
A. 118

Q. What value of measured activity at 100 µM is listed for C[C@@H]1CC[C@@]2(OC1)O[C@H]1C[C@H]3[C@@H]4CC=C5C[C@@H](O)C[C@@H](O[C@@H]6O[C@H](C)[C@H](O)[C@H](O[C@@H]7OC[C@@H](O)[C@H](O)[C@H]7O)[C@H]6O[C@@H]6O[C@@H](C)[C@H](O)[C@@H](O)[C@H]6O)[C@]5(C)[C@H]4CC[C@]3(C)[C@H]1[C@@H]2C [OD, ophiopogonin D] ?
A. 102

Q. What value of measured activity at 100 µM is listed for COc1ccc(C[C@@H]2COc3c(C)c(O)c(C)c(O)c3C2=O)cc1 [MB, methylophiopogonanone B] ?
A. 73.2

Q. What value of measured activity at 100 µM is listed for CC1CCC2(OC1)OC1CC3C4CC=C5CC(O)CC(O)C5(C)C4CCC3(C)C1C2C (centres unmarked) [RU, ruscorectal] ?
A. 88.4

Q. What value of measured activity at 100 µM is listed for Cc1c(O)c(C)c2c(c1O)C(=O)[C@H](Cc1ccc3c(c1)OCO3)CO2 [MA, methylophiopogonanone A] ?
A. 71.1

* * *

Would you kindly list activity at 100 µM for each of these molecules?
Biological target: UGT1A3 (Homo sapiens)
Construct: purchased BD Gentest Corp. (Woburn, MA, USA); host or cells: baculovirus-infected insect cells
Sequence (P35503 29-534): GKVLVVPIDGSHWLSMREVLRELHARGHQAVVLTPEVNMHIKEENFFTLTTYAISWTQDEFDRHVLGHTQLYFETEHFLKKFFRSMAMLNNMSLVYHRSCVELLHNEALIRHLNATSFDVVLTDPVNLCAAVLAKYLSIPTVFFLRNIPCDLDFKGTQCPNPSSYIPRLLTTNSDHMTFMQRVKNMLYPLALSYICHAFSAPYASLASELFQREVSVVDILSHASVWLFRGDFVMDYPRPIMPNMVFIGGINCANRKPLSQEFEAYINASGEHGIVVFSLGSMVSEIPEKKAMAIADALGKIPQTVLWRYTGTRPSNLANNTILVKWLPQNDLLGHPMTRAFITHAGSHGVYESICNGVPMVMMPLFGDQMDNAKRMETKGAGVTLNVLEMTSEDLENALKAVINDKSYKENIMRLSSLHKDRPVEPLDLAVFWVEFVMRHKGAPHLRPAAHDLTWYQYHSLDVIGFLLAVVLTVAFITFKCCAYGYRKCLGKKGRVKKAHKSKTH
Assay: Recombinant UGT1A3-catalyzed 4-MU glucuronidation inhibition
Format: in vitro ADME
Conditions: pH 7.4, probe 4-methylumbelliferone (4-MU), UGT1A3, 100 μM of compound, 4-MU substrate, read-out: residual activity
State just the number; it will be interpreted in %.

Q. What value of measured activity at 100 µM is listed for Cc1c(O)c(C)c2c(c1O)C(=O)[C@H](Cc1ccc3c(c1)OCO3)CO2 ?
A. 35.5

Q. What value of measured activity at 100 µM is listed for C[C@@H]1CC[C@@]2(OC1)O[C@H]1C[C@H]3[C@@H]4CC=C5C[C@@H](O[C@@H]6O[C@H](CO)[C@@H](O)[C@H](O[C@@H]7OC[C@@H](O)[C@H](O)[C@H]7O)[C@H]6O[C@@H]6O[C@@H](C)[C@H](O)[C@@H](O)[C@H]6O)CC[C@]5(C)[C@H]4CC[C@]3(C)[C@H]1[C@@H]2C ?
A. 36.5

Q. What value of measured activity at 100 µM is listed for CC1CCC2(OC1)OC1CC3C4CC=C5CC(O)CC(O)C5(C)C4CCC3(C)C1C2C (centres unmarked) ?
A. 37.2

Q. What value of measured activity at 100 µM is listed for COc1ccc(C[C@@H]2COc3c(C)c(O)c(C)c(O)c3C2=O)cc1 ?
A. 84.2

Q. What value of measured activity at 100 µM is listed for C[C@@H]1CC[C@@]2(OC1)O[C@H]1C[C@H]3[C@@H]4CC=C5C[C@@H](O)C[C@@H](O[C@@H]6O[C@H](C)[C@H](O)[C@H](O[C@@H]7OC[C@@H](O)[C@H](O)[C@H]7O)[C@H]6O[C@@H]6O[C@@H](C)[C@H](O)[C@@H](O)[C@H]6O)[C@]5(C)[C@H]4CC[C@]3(C)[C@H]1[C@@H]2C ?
A. 40.7

* * *

target: UGT1A7 (Homo sapiens); construct: purchased BD Gentest Corp. (Woburn, MA, USA); host or cells: baculovirus-infected insect cells; assay: Recombinant UGT1A7-catalyzed 4-MU glucuronidation inhibition; assay type: in vitro ADME; conditions: pH 7.4, probe 4-methylumbelliferone (4-MU), UGT1A7, 100 μM of compound, 4-MU substrate, read-out: residual activity
Sequence (Q9HAW7 26-530): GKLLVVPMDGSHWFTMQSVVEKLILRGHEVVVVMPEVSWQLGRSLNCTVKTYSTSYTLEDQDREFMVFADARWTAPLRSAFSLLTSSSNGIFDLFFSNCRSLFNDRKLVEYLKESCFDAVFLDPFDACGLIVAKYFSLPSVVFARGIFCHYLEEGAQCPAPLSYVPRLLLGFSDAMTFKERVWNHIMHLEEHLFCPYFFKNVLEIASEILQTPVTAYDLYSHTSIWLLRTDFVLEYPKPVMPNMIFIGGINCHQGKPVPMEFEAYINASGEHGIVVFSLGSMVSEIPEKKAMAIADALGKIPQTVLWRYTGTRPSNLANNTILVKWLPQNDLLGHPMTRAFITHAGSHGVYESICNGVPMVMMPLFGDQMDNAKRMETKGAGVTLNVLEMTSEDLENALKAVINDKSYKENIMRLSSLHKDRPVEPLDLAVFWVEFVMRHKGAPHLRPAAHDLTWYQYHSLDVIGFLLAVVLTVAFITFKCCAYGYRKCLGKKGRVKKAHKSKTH
Measure Name: activity at 100 µM
Please append the unit to your numeric answer.

Q. What value of measured activity at 100 µM is listed for C[C@@H]1CC[C@@]2(OC1)O[C@H]1C[C@H]3[C@@H]4CC=C5C[C@@H](O)C[C@@H](O[C@@H]6O[C@H](C)[C@H](O)[C@H](O[C@@H]7OC[C@@H](O)[C@H](O)[C@H]7O)[C@H]6O[C@@H]6O[C@@H](C)[C@H](O)[C@@H](O)[C@H]6O)[C@]5(C)[C@H]4CC[C@]3(C)[C@H]1[C@@H]2C ?
A. 144%

Q. What value of measured activity at 100 µM is listed for Cc1c(O)c(C)c2c(c1O)C(=O)[C@H](Cc1ccc3c(c1)OCO3)CO2 ?
A. 57.5%

Q. What value of measured activity at 100 µM is listed for CC1CCC2(OC1)OC1CC3C4CC=C5CC(O)CC(O)C5(C)C4CCC3(C)C1C2C (centres unmarked) ?
A. 52.4%

Q. What value of measured activity at 100 µM is listed for C[C@@H]1CC[C@@]2(OC1)O[C@H]1C[C@H]3[C@@H]4CC=C5C[C@@H](O[C@@H]6O[C@H](CO)[C@@H](O)[C@H](O[C@@H]7OC[C@@H](O)[C@H](O)[C@H]7O)[C@H]6O[C@@H]6O[C@@H](C)[C@H](O)[C@@H](O)[C@H]6O)CC[C@]5(C)[C@H]4CC[C@]3(C)[C@H]1[C@@H]2C ?
A. 122%

Q. What value of measured activity at 100 µM is listed for COc1ccc(C[C@@H]2COc3c(C)c(O)c(C)c(O)c3C2=O)cc1 ?
A. 83.4%

* * *

Would you kindly list activity at 100 µM for each of these compounds?
Target: UGT1A10 (Homo sapiens, UniProt Q9HAW8)
Construct: purchased BD Gentest Corp. (Woburn, MA, USA); host or cells: baculovirus-infected insect cells
Sequence (Q9HAW8 26-530): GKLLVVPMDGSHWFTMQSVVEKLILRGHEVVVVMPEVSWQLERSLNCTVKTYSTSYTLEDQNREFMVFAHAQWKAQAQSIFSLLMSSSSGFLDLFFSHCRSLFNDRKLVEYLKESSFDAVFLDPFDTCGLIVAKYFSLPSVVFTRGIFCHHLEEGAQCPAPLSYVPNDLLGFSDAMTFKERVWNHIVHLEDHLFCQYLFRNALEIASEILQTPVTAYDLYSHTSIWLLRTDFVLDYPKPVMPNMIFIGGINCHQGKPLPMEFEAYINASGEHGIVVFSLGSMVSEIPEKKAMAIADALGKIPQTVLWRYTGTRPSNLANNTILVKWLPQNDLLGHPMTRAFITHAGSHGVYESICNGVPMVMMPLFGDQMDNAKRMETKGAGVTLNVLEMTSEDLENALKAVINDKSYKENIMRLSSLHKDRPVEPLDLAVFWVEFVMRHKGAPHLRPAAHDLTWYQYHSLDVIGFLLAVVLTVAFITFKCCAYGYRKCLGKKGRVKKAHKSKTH
Assay: Recombinant UGT1A10-catalyzed 4-MU glucuronidation inhibition
Assay type: in vitro ADME
Details: human, pH 7.4, probe 4-methylumbelliferone (4-MU); UGT1A10, 100 μM of compound, 4-MU substrate; read-out: residual activity
Protocol: 4-Methylumbelliferone (4-MU), 4-methylumbelliferone-β-D-glucuronide (4-MUG), Tris-HCl, 7-hydroxycoumarin, and uridine-5′-diphosphoglucuronic acid (UDPGA) (trisodium salt) were purchased from Sigma-Aldrich (St. Louis, MO). […] To determine the inhibition kinetic type and parameters (K i), the reaction velocity (V) was determined at multiple concentrations of maidong's components and 4-MU (or TFP). […]
State just the number; it will be interpreted in %.

Q. What value of measured activity at 100 µM is listed for COc1ccc(C[C@@H]2COc3c(C)c(O)c(C)c(O)c3C2=O)cc1 ?
A. 96.9

Q. What value of measured activity at 100 µM is listed for C[C@@H]1CC[C@@]2(OC1)O[C@H]1C[C@H]3[C@@H]4CC=C5C[C@@H](O)C[C@@H](O[C@@H]6O[C@H](C)[C@H](O)[C@H](O[C@@H]7OC[C@@H](O)[C@H](O)[C@H]7O)[C@H]6O[C@@H]6O[C@@H](C)[C@H](O)[C@@H](O)[C@H]6O)[C@]5(C)[C@H]4CC[C@]3(C)[C@H]1[C@@H]2C ?
A. 26.5

Q. What value of measured activity at 100 µM is listed for C[C@@H]1CC[C@@]2(OC1)O[C@H]1C[C@H]3[C@@H]4CC=C5C[C@@H](O[C@@H]6O[C@H](CO)[C@@H](O)[C@H](O[C@@H]7OC[C@@H](O)[C@H](O)[C@H]7O)[C@H]6O[C@@H]6O[C@@H](C)[C@H](O)[C@@H](O)[C@H]6O)CC[C@]5(C)[C@H]4CC[C@]3(C)[C@H]1[C@@H]2C ?
A. 19.8

Q. What value of measured activity at 100 µM is listed for CC1CCC2(OC1)OC1CC3C4CC=C5CC(O)CC(O)C5(C)C4CCC3(C)C1C2C (centres unmarked) ?
A. 82

Q. What value of measured activity at 100 µM is listed for Cc1c(O)c(C)c2c(c1O)C(=O)[C@H](Cc1ccc3c(c1)OCO3)CO2 ?
A. 70
